Assay: Phase 1 clinical study: plasma pharmacokinetics of prodrug and ibuprofen
Format: in vivo, human
Details: human, plasma, topical, 70 mg, Day 12; 70 mg b.i.d. spray; read-out: prodrug AUClast
MEASUREMENT TYPE: AUC(0-t) (ng·h/mL)
The reply should contain only the number, in ng·h/mL.

// field: AUC(0-t); key: CCN(CC)CCOC(=O)C(C)c1ccc(CC(C)C)cc1 (stereo not shown) ; value = 2.62

---

Assay: Phase 1 clinical study: plasma pharmacokinetics of prodrug and ibuprofen
Type: in vivo, human
Conditions: human, plasma, topical or ocular, 17.5 mg, Day 12; 17.5 mg b.i.d. topical; read-out: prodrug AUClast
MEASUREMENT TYPE: AUC(0-t) (ng·h/mL)
The reply should contain only the number, in ng·h/mL.

// field: AUC(0-t); key: CCN(CC)CCOC(=O)C(C)c1ccc(CC(C)C)cc1 (stereo not shown) ; value = 1.31

---

Assay: Phase 1 clinical study: plasma pharmacokinetics of prodrug and ibuprofen
Type: in vivo, human
Details: human, plasma, topical or ocular, 140 mg, Day 1; 140 mg topical; read-out: prodrug Cmax
MEASUREMENT TYPE: Cmax

// field: Cmax; key: CCN(CC)CCOC(=O)C(C)c1ccc(CC(C)C)cc1 (stereo not shown) ; value = 0.116 ng/mL

---

Assay: Phase 1 clinical study: plasma pharmacokinetics of prodrug and ibuprofen
Assay type: in vivo, human
Details: human, plasma, topical or ocular, 280 mg, Day 1; 280 mg topical; read-out: prodrug Tmax, median (range)
MEASUREMENT TYPE: Tmax (h)
The reply should contain only the number, in h.

// field: Tmax; key: CCN(CC)CCOC(=O)C(C)c1ccc(CC(C)C)cc1 (stereo not shown) ; value = 18

---

Test: Phase 1 clinical study: plasma pharmacokinetics of prodrug and ibuprofen
Format: in vivo, human
Details: human, plasma, topical or ocular, 140 mg, Day 12; 140 mg b.i.d. topical; read-out: prodrug Cmax
MEASUREMENT TYPE: Cmax
Be sure to follow the number with its unit.

// field: Cmax; key: CCN(CC)CCOC(=O)C(C)c1ccc(CC(C)C)cc1 (stereo not shown) ; value = 0.305 ng/mL

---

Assay: Phase 1 clinical study: plasma pharmacokinetics of prodrug and ibuprofen
Type: in vivo, human
Details: human, plasma, topical or ocular, 70 mg, Day 1; 70 mg topical; read-out: prodrug AUClast
MEASUREMENT TYPE: AUC(0-t) (ng·h/mL)
The reply should contain only the number, in ng·h/mL.

// field: AUC(0-t); key: CCN(CC)CCOC(=O)C(C)c1ccc(CC(C)C)cc1 (stereo not shown) ; value = 1.99

---

Test: Phase 1 clinical study: plasma pharmacokinetics of prodrug and ibuprofen
Type: in vivo, human
Settings: human, plasma, topical or ocular, 70 mg, Day 12; 70 mg b.i.d. topical; read-out: prodrug AUC0-12
MEASUREMENT TYPE: AUC0-12 (ng·h/mL)
The reply should contain only the number, in ng·h/mL.

// field: AUC0-12; key: CCN(CC)CCOC(=O)C(C)c1ccc(CC(C)C)cc1 (stereo not shown) ; value = 1.1

---

Experiment: Phase 1 clinical study: plasma pharmacokinetics of prodrug and ibuprofen
Type: in vivo, human
Conditions: human, plasma, topical or ocular, 140 mg, Day 12; 140 mg b.i.d. topical; read-out: prodrug AUClast
MEASUREMENT TYPE: AUC(0-t)

// field: AUC(0-t); key: CCN(CC)CCOC(=O)C(C)c1ccc(CC(C)C)cc1 (stereo not shown) ; value = 3.6 ng·h/mL

---

Test: Phase 1 clinical study: plasma pharmacokinetics of prodrug and ibuprofen
Assay type: in vivo, human
Details: human, plasma, topical, 70 mg, Day 1; 70 mg spray; read-out: prodrug AUClast
MEASUREMENT TYPE: AUC(0-t) (ng·h/mL)
The reply should contain only the number, in ng·h/mL.

// field: AUC(0-t); key: CCN(CC)CCOC(=O)C(C)c1ccc(CC(C)C)cc1 (stereo not shown) ; value = 0.947

---

Assay: Phase 1 clinical study: plasma pharmacokinetics of prodrug and ibuprofen
Format: in vivo, human
Details: human, plasma, topical or ocular; Day 12; 280 mg b.i.d. topical; read-out: prodrug t1/2 (converted)
MEASUREMENT TYPE: half-life (h)
The reply should contain only the number, in h.

// field: half-life; key: CCN(CC)CCOC(=O)C(C)c1ccc(CC(C)C)cc1 (stereo not shown) ; value = 37.8

---

Experiment: Acute maximum tolerated dose study, subcutaneous injection
Parameters: species or system Beagle dogs
Conditions: beagle, dog, in vivo, sc
MEASUREMENT TYPE: MTD (mg/kg)
The reply should contain only the number, in mg/kg.

// field: MTD; key: CCN(CC)CCOC(=O)C(C)c1ccc(CC(C)C)cc1 (stereo not shown) ; value = 500

---

Assay: Phase 1 clinical study: plasma pharmacokinetics of prodrug and ibuprofen
Assay type: in vivo, human
Settings: human, plasma, topical or ocular, 140 mg, Day 12; 140 mg b.i.d. topical; read-out: prodrug AUC0-12
MEASUREMENT TYPE: AUC0-12 (ng·h/mL)
The reply should contain only the number, in ng·h/mL.

// field: AUC0-12; key: CCN(CC)CCOC(=O)C(C)c1ccc(CC(C)C)cc1 (stereo not shown) ; value = 1.82

---

Test: Phase 1 clinical study: plasma pharmacokinetics of prodrug and ibuprofen
Format: in vivo, human
Settings: human, plasma, topical, 70 mg, Day 12; 70 mg spray; read-out: prodrug Cmax, geometric mean
MEASUREMENT TYPE: Cmax (ng/mL)
The reply should contain only the number, in ng/mL.

// field: Cmax; key: CCN(CC)CCOC(=O)C(C)c1ccc(CC(C)C)cc1.Cl (stereo not shown) ; value = 0.155

---

Assay: Phase 1 clinical study: plasma pharmacokinetics of prodrug and ibuprofen
Assay type: in vivo, human
Details: human, plasma, topical or ocular, 17.5 mg, Day 12; 17.5 mg b.i.d. topical; read-out: prodrug AUC0-12
MEASUREMENT TYPE: AUC0-12 (ng·h/mL)
The reply should contain only the number, in ng·h/mL.

// field: AUC0-12; key: CCN(CC)CCOC(=O)C(C)c1ccc(CC(C)C)cc1 (stereo not shown) ; value = 0.809

---

Assay: Phase 1 clinical study: plasma pharmacokinetics of prodrug and ibuprofen
Format: in vivo, human
Conditions: human, plasma, topical or ocular, 70 mg, Day 1; 70 mg topical; read-out: prodrug AUC0-12
MEASUREMENT TYPE: AUC0-12 (ng·h/mL)
The reply should contain only the number, in ng·h/mL.

// field: AUC0-12; key: CCN(CC)CCOC(=O)C(C)c1ccc(CC(C)C)cc1 (stereo not shown) ; value = 0.836

---

Assay: Phase 1 clinical study: plasma pharmacokinetics of prodrug and ibuprofen
Assay type: in vivo, human
Settings: human, plasma, topical or ocular, 70 mg, Day 12; 70 mg topical; read-out: prodrug AUC0-12, geometric mean
MEASUREMENT TYPE: AUC0-12 (ng·h/mL)
The reply should contain only the number, in ng·h/mL.

// field: AUC0-12; key: CCN(CC)CCOC(=O)C(C)c1ccc(CC(C)C)cc1.Cl (stereo not shown) ; value = 0.953

---

Test: Phase 1 clinical study: plasma pharmacokinetics of prodrug and ibuprofen
Assay type: in vivo, human
Conditions: human, plasma, topical or ocular, 35 mg, Day 12; 35 mg b.i.d. topical; read-out: prodrug AUClast
MEASUREMENT TYPE: AUC(0-t) (ng·h/mL)
The reply should contain only the number, in ng·h/mL.

// field: AUC(0-t); key: CCN(CC)CCOC(=O)C(C)c1ccc(CC(C)C)cc1 (stereo not shown) ; value = 2.29

---

Assay: Phase 1 clinical study: plasma pharmacokinetics of prodrug and ibuprofen
Type: in vivo, human
Settings: human, plasma, topical, 70 mg, Day 12; 70 mg b.i.d. spray; read-out: prodrug Tmax, median (range)
MEASUREMENT TYPE: Tmax (h)
The reply should contain only the number, in h.

// field: Tmax; key: CCN(CC)CCOC(=O)C(C)c1ccc(CC(C)C)cc1 (stereo not shown) ; value = 3

---

Assay: Phase 1 clinical study: plasma pharmacokinetics of prodrug and ibuprofen
Format: in vivo, human
Conditions: human, plasma, topical or ocular, 35 mg, Day 1; 35 mg topical; read-out: prodrug AUClast
MEASUREMENT TYPE: AUC(0-t) (ng·h/mL)
The reply should contain only the number, in ng·h/mL.

// field: AUC(0-t); key: CCN(CC)CCOC(=O)C(C)c1ccc(CC(C)C)cc1 (stereo not shown) ; value = 0.864

---

Assay: Phase 1 clinical study: plasma pharmacokinetics of prodrug and ibuprofen
Assay type: in vivo, human
Settings: human, plasma, topical, 70 mg, Day 12; 70 mg b.i.d. spray; read-out: prodrug AUC0-12
MEASUREMENT TYPE: AUC0-12 (ng·h/mL)
The reply should contain only the number, in ng·h/mL.

// field: AUC0-12; key: CCN(CC)CCOC(=O)C(C)c1ccc(CC(C)C)cc1 (stereo not shown) ; value = 1.06
